SUBJECT OF TEST: PANC08.13 cells (Homo sapiens, UniProt P01116, G12D)
Construct: p-ERK/total ERK AlphaSureFire read-out
Sequence (P01116 1-188 isoform P01116-2 G12D): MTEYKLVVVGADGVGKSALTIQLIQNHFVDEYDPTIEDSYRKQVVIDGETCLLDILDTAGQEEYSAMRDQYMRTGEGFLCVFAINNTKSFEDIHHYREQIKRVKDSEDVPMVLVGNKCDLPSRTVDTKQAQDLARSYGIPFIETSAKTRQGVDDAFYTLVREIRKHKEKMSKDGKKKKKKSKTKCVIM
EXPERIMENTAL DETAILS: Cellular phospho-ERK assay, PANC08.13 cells (KRAS G12D)
PROTOCOL CONDITIONS: 2 hours, read-out: PANCO 813 pERK IC50
pIC50: −log10 of the molar value.
Output YES for pIC50 not less than 6; output NO otherwise.

{"COMPOUND": "C#Cc1cccc2cccc(-c3nccc4c5c(N6C[C@H]7CC[C@@H](C6)N7)nc(OC[C@@]67CCCN6C[C@H](F)C7)nc5n(C)c34)c12", "LABEL VALUE": "YES"}
{"COMPOUND": "N#Cc1c(N)sc2c(F)ccc(-c3nccc4c3sc3nc(OC[C@@]56CCCN5C[C@H](F)C6)nc(N5C[C@H]6CC[C@@H](C5)N6)c34)c12", "LABEL VALUE": "NO"}
{"COMPOUND": "Cc1cc2[nH]ncc2c(-c2nccc3c4c(N5C[C@H]6CC[C@@H](C5)N6)nc(OC[C@]5(CO)CC5(F)F)nc4n(C)c23)c1C(F)(F)F", "LABEL VALUE": "NO"}
{"COMPOUND": "C#Cc1c(F)ccc2cc(O)cc(-c3nccc4c5c(N6C[C@H]7CC[C@@H](C6)N7)nc(OC[C@@]67CCCN6C[C@H](F)C7)nc5n(C)c34)c12", "LABEL VALUE": "YES"}
{"COMPOUND": "Cc1cc2[nH]ncc2c(-c2nccc3c2oc2nc(OC[C@@]45CCCN4C[C@H](F)C5)nc(N4C[C@H]5CC[C@@H](C4)N5)c23)c1C(F)(F)F", "LABEL VALUE": "NO"}
{"COMPOUND": "N#Cc1c(N)sc2c(F)cc(F)c(-c3nccc4c3sc3nc(OC[C@]5(CO)CC5(F)F)nc(N5C[C@H]6CC[C@@H](C5)N6)c34)c12", "LABEL VALUE": "NO"}
{"COMPOUND": "Cc1cc2[nH]ncc2c(-c2nccc3c4c(N5C[C@H]6CC[C@@H](C5)N6)nc(OC[C@@]56CCCN5C[C@H](F)C6)nc4n(C)c23)c1C(F)(F)F (single isomer, unassigned)", "LABEL VALUE": "YES"}
{"COMPOUND": "Cc1cc2[nH]nc(C#N)c2c(-c2nccc3c4c(N5C[C@H]6CC[C@@H](C5)N6)nc(OC[C@@]56CCCN5C[C@H](F)C6)nc4n(C)c23)c1C(F)(F)F (single isomer, unassigned)", "LABEL VALUE": "NO"}
{"COMPOUND": "Cc1cc2[nH]nc(C#N)c2c(-c2nccc3c2sc2nc(OC[C@@]45CCCN4C[C@H](F)C5)nc(N4C[C@H]5CC[C@@H](C4)N5)c23)c1C(F)(F)F", "LABEL VALUE": "YES"}
{"COMPOUND": "C#Cc1cccc2cccc(-c3nccc4c3sc3nc(OC[C@@]56CCCN5C[C@H](F)C6)nc(N5C[C@H]6CC[C@@H](C5)N6)c34)c12", "LABEL VALUE": "YES"}
{"COMPOUND": "C#Cc1c(F)ccc2cc(N)nc(-c3nccc4c5c(N6C[C@H]7CC[C@@H](C6)N7)nc(OC[C@@]67CCCN6C[C@H](F)C7)nc5n(C)c34)c12", "LABEL VALUE": "YES"}

---

SUBJECT OF TEST: KRAS WT (Homo sapiens, UniProt P01116)
Sequence (P01116 with tags, fused parts or gaps isoform P01116-2): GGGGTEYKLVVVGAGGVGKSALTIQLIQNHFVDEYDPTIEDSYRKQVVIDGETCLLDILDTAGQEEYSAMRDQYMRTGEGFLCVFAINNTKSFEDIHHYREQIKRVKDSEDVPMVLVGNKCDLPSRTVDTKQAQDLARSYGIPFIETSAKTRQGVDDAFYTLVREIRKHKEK
EXPERIMENTAL DETAILS: SOS-catalyzed nucleotide exchange assay, KRAS WT (Procedure A)
Assay type: biochemical
PROTOCOL CONDITIONS: GNE
Reported IC50 values are given for each entry in this list.
READOUT TYPE: IC50

{"MOLECULE": "Cc1cc2[nH]ncc2c(-c2nccc3c2sc2nc(OC[C@@]45CCCN4C[C@H](F)C5)nc(N4C[C@H]5C[C@@H]4CN5)c23)c1C(F)(F)F", "READING": "7.5 µM"}
{"MOLECULE": "F[C@H]1CN2CCC[C@@]2(COc2nc(N3C[C@H]4CC[C@@H](C3)N4)c3c(n2)C2(CC2)c2c-3ccnc2-c2c(C3CC3)c(Cl)cc3[nH]ncc23)C1 (single isomer, unassigned)", "READING": "2.05 µM"}
{"MOLECULE": "N#Cc1c(N)sc2c(F)cc(F)c(-c3nccc4c3sc3nc(OC[C@]5(CO)CC5(F)F)nc(N5C[C@H]6CC[C@@H](C5)N6)c34)c12", "READING": "> 11.1 µM"}

---

Here the recorded pIC50 is given for each entry.
SUBJECT OF TEST: KRAS G12V (Homo sapiens, UniProt P01116, G12V)
Sequence (P01116 with tags, fused parts or gaps isoform P01116-2 G12V): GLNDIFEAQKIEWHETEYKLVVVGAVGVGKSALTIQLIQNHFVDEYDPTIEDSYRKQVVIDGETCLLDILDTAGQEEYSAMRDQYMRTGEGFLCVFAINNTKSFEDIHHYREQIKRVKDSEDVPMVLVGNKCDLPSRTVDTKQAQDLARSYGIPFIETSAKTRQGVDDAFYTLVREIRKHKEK
EXPERIMENTAL DETAILS: SOS-catalyzed nucleotide exchange assay, KRAS G12V (Procedure A)
Type: biochemical
PROTOCOL CONDITIONS: GNE
pIC50: −log10 of the molar value.

{"INPUT SMILES": "Cc1cc2[nH]ncc2c(-c2nccc3c2oc2nc(OC[C@@]45CCCN4C[C@H](F)C5)nc(N4C[C@H]5CC[C@@H](C4)N5)c23)c1C(F)(F)F", "pIC50": "< 4.95"}
{"INPUT SMILES": "F[C@H]1CN2CCC[C@@]2(COc2nc(N3C[C@H]4CC[C@@H](C3)N4)c3c(n2)sc2c(-c4c(C5CC5)c(Cl)cc5[nH]ncc45)nccc23)C1", "pIC50": 5.91}
{"INPUT SMILES": "FC(F)(F)C1(COc2nc(N3C[C@H]4CC[C@@H](C3)N4)c3c(n2)sc2c(-c4c(C5CC5)c(Cl)cc5[nH]ncc45)nccc23)CCOCC1", "pIC50": "< 4.95"}

---

SUBJECT OF TEST: KRAS WT (Homo sapiens)
EXPERIMENTAL DETAILS: SOS-catalyzed nucleotide exchange assay, KRAS WT (Procedure A)
Assay type: biochemical
PROTOCOL CONDITIONS: GNE
Description: Procedure for SOS-Catalyzed Nucleotide Exchange Assay for KRAS-WT, G12C/D/V, G13D, HRAS, and NRAS (Procedure A) Recombinant KRAS-G12C protein used in this assay has an additional triple mutation (C51S/C80L/C118S). […] The time-resolved fluorescence resonance energy transfer (TR-FRET) signal is measured on an Envision (PerkinElmer) plate reader: Excitation filter=340 nm; emission1=495 nm; emission2=520 nm; dichroic mirror=D400/D505; delay time=100 ms. […]
pIC50: −log10 of the molar value.
Listing of entries alongside the reported pIC50.

{"COMPOUND": "C#Cc1c(F)ccc2cc3[nH]ncc3c(-c3nccc4c3sc3nc(OC[C@]5(CN6CCN(CC(F)(F)F)CC6)CC5(F)F)nc(N5C[C@H]6CC[C@@H](C5)N6)c34)c12 [Ex-101]", "pIC50": "< 4.96"}
{"COMPOUND": "Cc1cc2[nH]ncc2c(-c2nccc3c2sc2nc(OCCN4CCOC4=O)nc(N4C[C@H]5CC[C@@H](C4)N5)c23)c1C(F)(F)F [Ex-40]", "pIC50": "< 4.95"}
{"COMPOUND": "Cc1cc2[nH]ncc2c(-c2nccc3c2sc2nc(OCC4(CO)CCC4)nc(N4C[C@H]5CC[C@@H](C4)N5)c23)c1C(F)F [Ex-64]", "pIC50": "< 4.95"}

---

Measured IC50, listed per entry.
SUBJECT OF TEST: KRAS WT (Homo sapiens, UniProt P01116)
EXPERIMENTAL DETAILS: SOS-catalyzed nucleotide exchange assay, KRAS WT (Procedure A)
Format: biochemical
PROTOCOL CONDITIONS: GNE

{"COMPOUND": "Cc1cc2[nH]ncc2c(-c2nccc3c2sc2nc(OC[C@H]4C[C@H](S(C)(=O)=O)C4)nc(N4C[C@H]5CC[C@@H](C4)N5)c23)c1C(F)(F)F", "LIMIT QUALIFIER": ">", "IC50 [nM]": 11100}
{"COMPOUND": "C#Cc1c(F)ccc2cc(O)cc(-c3nccc4c5c(N6C[C@H]7CC[C@@H](C6)N7)nc(OC[C@@]67CCCN6C[C@H](F)C7)nc5n(C)c34)c12", "LIMIT QUALIFIER": "=", "IC50 [nM]": 48.1}
{"COMPOUND": "Cc1cc2[nH]ncc2c(-c2nccc3c2sc2nc(OCC4CCS4(=O)=O)nc(N4C[C@H]5CC[C@@H](C4)N5)c23)c1C(F)(F)F (some centres unmarked)", "LIMIT QUALIFIER": ">", "IC50 [nM]": 11100}
{"COMPOUND": "F[C@H]1CN2CCC[C@@]2(COc2nc(N3C[C@H]4CC[C@@H](C3)N4)c3c(n2)sc2c(-c4c(C5(F)CC5)c(C(F)(F)F)cc5[nH]ncc45)nccc23)C1", "LIMIT QUALIFIER": "=", "IC50 [nM]": 4810}
{"COMPOUND": "Cc1cc2[nH]nc(C#N)c2c(-c2nccc3c2sc2nc(OC[C@@]45CCCN4C[C@H](F)C5)nc(N4C[C@H]5CC[C@@H](C4)N5)c23)c1C(F)F", "LIMIT QUALIFIER": ">", "IC50 [nM]": 11100}
{"COMPOUND": "C#Cc1csc2cc3[nH]ncc3c(-c3nccc4c3sc3nc(OC[C@@]56CCCN5C[C@H](F)C6)nc(N5C[C@H]6CC[C@@H](C5)N6)c34)c12", "LIMIT QUALIFIER": "=", "IC50 [nM]": 80.7}
{"COMPOUND": "C#Cc1c(F)ccc2cc3[nH]ncc3c(-c3nccc4c3sc3nc(OC[C@@]56CCCN5C/C(=C\\F)C6)nc(N5C[C@H]6CC[C@@H](C5)N6)c34)c12", "LIMIT QUALIFIER": "=", "IC50 [nM]": 32.8}
{"COMPOUND": "CCn1c2nc(OC[C@@]34CCCN3C[C@H](F)C4)nc(N3C[C@H]4CC[C@@H](C3)N4)c2c2ccnc(-c3c(C(F)(F)F)c(C)cc4[nH]ncc34)c21", "LIMIT QUALIFIER": ">", "IC50 [nM]": 11100}
{"COMPOUND": "C#Cc1c(F)ccc2cc3[nH]ncc3c(-c3nccc4c3sc3nc(OC[C@@]56CCC7(CC7)N5C[C@H](F)C6)nc(N5C[C@H]6CC[C@@H](C5)N6)c34)c12", "LIMIT QUALIFIER": "=", "IC50 [nM]": 1290}
{"COMPOUND": "Cc1cc2[nH]ncc2c(-c2nccc3c2sc2nc(OC[C@]4(CO)CC4(F)F)nc(N4C[C@H]5CC[C@@H](C4)N5)c23)c1C(F)(F)F", "LIMIT QUALIFIER": ">", "IC50 [nM]": 11100}
{"COMPOUND": "Cc1cc2[nH]ncc2c(-c2nccc3c2sc2nc(OC[C@@]45CCCN4C[C@H](F)C5)nc(N4C5CNCC4C5)c23)c1C(F)(F)F", "LIMIT QUALIFIER": "=", "IC50 [nM]": 6600}
{"COMPOUND": "Cc1cc2[nH]ncc2c(-c2nncc3c2sc2nc(OC[C@@]45CCCN4C[C@H](F)C5)nc(N4C[C@H]5CC[C@@H](C4)N5)c23)c1C(F)(F)F", "LIMIT QUALIFIER": "=", "IC50 [nM]": 4840}
{"COMPOUND": "Cc1cc2[nH]ncc2c(-c2nccc3c2sc2nc(OCC4(S(C)(=O)=O)CC4)nc(N4C[C@H]5CC[C@@H](C4)N5)c23)c1C(F)(F)F", "LIMIT QUALIFIER": ">", "IC50 [nM]": 11100}
{"COMPOUND": "F[C@H]1CN2CCC[C@@]2(COc2nc(N3C[C@H]4CC[C@@H](C3)N4)c3c(n2)sc2c(-c4c5cn[nH]c5cc5cccc(Cl)c45)nccc23)C1", "LIMIT QUALIFIER": "=", "IC50 [nM]": 1830}
{"COMPOUND": "C#Cc1c(F)ccc2cc3[nH]ncc3c(-c3nccc4c3sc3nc(OCC56CCCC5N(C)CCC6)nc(N5C[C@H]6CC[C@@H](C5)N6)c34)c12 (some centres unmarked)", "LIMIT QUALIFIER": "=", "IC50 [nM]": 57.4}
{"COMPOUND": "C#Cc1csc2cc3[nH]ncc3c(-c3nccc4c3sc3nc(OC[C@]5(CN6CC7(C6)CC(F)(F)C7)CC5(F)F)nc(N5C[C@H]6CC[C@@H](C5)N6)c34)c12", "LIMIT QUALIFIER": "=", "IC50 [nM]": 430}
{"COMPOUND": "Cc1cc2[nH]ncc2c(-c2nccc3c4c(N5C[C@H]6CC[C@@H](C5)N6)nc(OC[C@]5(CO)CC5(F)F)nc4n(C)c23)c1C(F)(F)F", "LIMIT QUALIFIER": ">", "IC50 [nM]": 11100}
{"COMPOUND": "C#Cc1c(F)ccc2cc3[nH]ncc3c(-c3nccc4c3sc3nc(OCC5(C(=O)NC)CC5)nc(N5C[C@H]6CC[C@@H](C5)N6)c34)c12", "LIMIT QUALIFIER": ">", "IC50 [nM]": 11100}
{"COMPOUND": "C#Cc1c(F)ccc2cc3[nH]ncc3c(-c3nccc4c3sc3nc(OC[C@]5(CN6CCC6)CC5(F)F)nc(N5C[C@H]6CC[C@@H](C5)N6)c34)c12", "LIMIT QUALIFIER": "=", "IC50 [nM]": 800}
{"COMPOUND": "C#Cc1c(F)ccc2cc3[nH]ncc3c(-c3nccc4c3sc3nc(OC[C@]5(CN6CCN(C(C)=O)CC6)CC5(F)F)nc(N5C[C@H]6CC[C@@H](C5)N6)c34)c12", "LIMIT QUALIFIER": ">", "IC50 [nM]": 11100}
{"COMPOUND": "CC12CC(COc3nc(N4C[C@H]5CC[C@@H](C4)N5)c4c(n3)sc3c(-c5c(C6CC6)c(Cl)cc6[nH]ncc56)nccc34)(CO1)C2", "LIMIT QUALIFIER": ">", "IC50 [nM]": 11100}
{"COMPOUND": "C#Cc1c(F)ccc2cc3[nH]ncc3c(-c3nccc4c3sc3nc(OCC56CCCN5CC(=C(F)F)C6)nc(N5C[C@H]6CC[C@@H](C5)N6)c34)c12 (some centres unmarked)", "LIMIT QUALIFIER": "=", "IC50 [nM]": 72.9}
{"COMPOUND": "OC1C2CCCC1(COc1nc(N3C[C@H]4CC[C@@H](C3)N4)c3c(n1)sc1c(-c4c(C5CC5)c(Cl)cc5[nH]ncc45)nccc13)CC2 (some centres unmarked)", "LIMIT QUALIFIER": ">", "IC50 [nM]": 11100}
